Recorded hERG current change (%, negative = inhibition) at 10uM by entry
# system tested: human ether-à-go-go-related gene (hERG) potassium channel (human, UniProt Q12809)
# Sequence (Q12809 whole entry, looked up): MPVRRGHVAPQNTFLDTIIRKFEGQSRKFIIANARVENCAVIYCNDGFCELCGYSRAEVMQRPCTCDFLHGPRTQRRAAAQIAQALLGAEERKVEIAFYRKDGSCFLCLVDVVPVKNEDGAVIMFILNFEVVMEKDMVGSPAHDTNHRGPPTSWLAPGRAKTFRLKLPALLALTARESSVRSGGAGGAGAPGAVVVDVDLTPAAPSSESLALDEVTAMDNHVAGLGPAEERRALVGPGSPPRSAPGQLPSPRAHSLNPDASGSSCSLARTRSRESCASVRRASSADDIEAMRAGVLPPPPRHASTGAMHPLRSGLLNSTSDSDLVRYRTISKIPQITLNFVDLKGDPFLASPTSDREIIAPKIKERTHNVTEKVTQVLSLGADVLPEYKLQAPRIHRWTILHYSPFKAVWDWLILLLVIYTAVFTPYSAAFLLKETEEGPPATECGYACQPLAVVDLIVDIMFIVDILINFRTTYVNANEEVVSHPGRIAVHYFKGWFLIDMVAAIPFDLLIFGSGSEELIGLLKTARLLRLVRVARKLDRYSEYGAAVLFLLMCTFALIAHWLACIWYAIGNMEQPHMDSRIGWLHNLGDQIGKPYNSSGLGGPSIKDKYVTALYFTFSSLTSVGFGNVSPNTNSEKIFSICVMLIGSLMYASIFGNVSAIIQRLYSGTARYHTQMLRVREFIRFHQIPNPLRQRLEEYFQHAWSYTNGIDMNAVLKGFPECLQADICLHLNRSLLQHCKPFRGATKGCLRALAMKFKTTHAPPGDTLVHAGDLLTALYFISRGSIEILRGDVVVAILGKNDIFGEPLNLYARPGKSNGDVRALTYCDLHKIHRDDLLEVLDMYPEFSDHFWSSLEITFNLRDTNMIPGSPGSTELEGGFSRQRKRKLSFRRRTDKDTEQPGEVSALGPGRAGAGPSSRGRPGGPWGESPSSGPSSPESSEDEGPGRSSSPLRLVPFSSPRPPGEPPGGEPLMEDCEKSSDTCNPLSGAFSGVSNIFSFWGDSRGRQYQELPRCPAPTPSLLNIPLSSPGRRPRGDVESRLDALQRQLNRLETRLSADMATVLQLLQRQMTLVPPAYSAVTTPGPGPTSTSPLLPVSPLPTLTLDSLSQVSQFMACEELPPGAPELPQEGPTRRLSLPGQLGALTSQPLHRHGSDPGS
# measurement notes: primary screen, population patch clamp on CHO cells stably expressing hERG; higher = less effect of the substance
About 14,000 (4.5%) of roughly 310,000 compounds showed an effect of 50% or more. The effect is printed as a negative number. This is one part of a sample in which strong results are shown more often than they occur.
# number only, unit % dropped from output

Past entries and their recorded results:
# compound, u, quantitative readout
records = [
    ("Cc1ccc(CNc2ccc3c(c2)nc(C)n3C)cc1", "%", -21.9),
    ("CCCn1cnc2cc(NCc3cccc(OC)c3O)ccc21", "%", -29.3),
    ("COc1ccc(N(CC(O)CN2CCCCC2)S(=O)(=O)c2ccc(C)cc2)cc1 (stereo not drawn)", "%", -78.6),
    ("Cc1noc(C)c1COC(=O)c1ccc(N(C)C)cc1", "%", -9.83),
    ("CCCn1cnc2cc(NCc3ccccc3O)ccc21", "%", -0.21),
    ("O=C(OCC(=O)N1CCN(C(=O)c2ccco2)CC1)c1ccccc1Cc1ccccc1", "%", -56.3),
    ("CCCCn1cnc2cc(NCc3ccncc3)ccc21", "%", -1.31),
    ("CN(CC(=O)Nc1ccc(Cl)c(Cl)c1)C(=O)/C=C/c1ccc(F)cc1", "%", 1.66),
    ("COc1ccc(NS(=O)(=O)c2ccc(O)c(C(=O)OCC(=O)N3CCCCC3)c2)cc1", "%", -7.02),
    ("Cc1ccc(S(=O)(=O)N(CC(O)CN2CCOCC2)c2cc(Cl)ccc2Cl)cc1.Cl (stereo not drawn)", "%", -31.9),
]

**Q:** Report measured hERG current change (%, negative = inhibition) at 10uM on human ether-à-go-go-related gene (hERG) potassium channel (human, UniProt Q12809); entry: O=C(CCNS(=O)(=O)c1ccc(Cl)cc1)OCC(=O)N1CCN(C(=O)c2ccco2)CC1
**A:** -47.4

**Q:** Give reported hERG current change (%, negative = inhibition) at 10uM for COc1ccc(N(CC(O)CN2CCOCC2)S(=O)(=O)c2ccc(C)cc2)cc1 (stereo not drawn) (human ether-à-go-go-related gene (hERG) potassium channel (human, UniProt Q12809))
**A:** -45.2

**Q:** Name the recorded hERG current change (%, negative = inhibition) at 10uM of COc1ccc(N(CC(O)Cn2c3ccccc3c3ccccc32)S(=O)(=O)c2ccccc2)cc1 (stereo not drawn) , assay system human ether-à-go-go-related gene (hERG) potassium channel (human, UniProt Q12809).
**A:** 3.8

**Q:** # lookup: human ether-à-go-go-related gene (hERG) potassium channel (human, UniProt Q12809) hERG current change (%, negative = inhibition) at 10uM, key = CN(c1ccc(C(=O)N2CCCCC2)cc1)S(=O)(=O)c1cccs1
**A:** 8.46

**Q:** Please report the measured hERG current change (%, negative = inhibition) at 10uM for Cn1cnc2cc(NCc3ccc(Cl)cc3)ccc21 tested on human ether-à-go-go-related gene (hERG) potassium channel (human, UniProt Q12809).
**A:** -18.3

**Q:** Give the observed hERG current change (%, negative = inhibition) at 10uM of CC(CCc1ccccc1)NC(=S)NC1CCCCC1 (stereo not drawn) for human ether-à-go-go-related gene (hERG) potassium channel (human, UniProt Q12809).
**A:** 12

**Q:** GET hERG current change (%, negative = inhibition) at 10uM | system: human ether-à-go-go-related gene (hERG) potassium channel (human, UniProt Q12809) | item: CCn1cnc2cc(NCc3ccccc3Cl)ccc21
**A:** -52.1

**Q:** Enter hERG current change (%, negative = inhibition) at 10uM (test system human ether-à-go-go-related gene (hERG) potassium channel (human, UniProt Q12809)) for Cc1cc(C)n(CC(O)CN(c2ccccc2)S(=O)(=O)c2ccccc2)n1 (stereo not drawn);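 also: peak tail current of the secondary pulse compared with the same well before compound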
**A:** 7.17

**Q:** Supply hERG current change (%, negative = inhibition) at 10uM measured with human ether-à-go-go-related gene (hERG) potassium channel (human, UniProt Q12809) for CCCCNS(=O)(=O)c1ccc(S(=O)(=O)NCc2ccncc2)cc1 .
**A:** -9.06

---

# hERG current change (%, negative = inhibition) at 10uM listing for each entry below
# system tested: human ether-à-go-go-related gene (hERG) potassium channel (human, UniProt Q12809);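 also: peak tail current of the secondary pulse compared with the same well before compound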
# measurement notes: primary screen, population patch clamp on CHO cells stably expressing hERG; higher = less effect of the substance
Hit rate of the full screen: of about 310,000 compounds, about 14,000 (4.5%) showed an effect of 50% or more. The effect is printed as a negative number. The entries come from a sample that favours strong results as a whole.

# compound, system tested, result
records = [
    ("Cc1cccc(C)c1NC(=O)CSc1nnc(-c2ccncc2)n1Cc1ccco1", "human ether-à-go-go-related gene (hERG) potassium channel (human, UniProt Q12809)", "-29.2%"),
]

Now let's try a different one.
**Q:** Provide hERG current change (%, negative = inhibition) at 10uM, recorded with human ether-à-go-go-related gene (hERG) potassium channel (human, UniProt Q12809), of CCn1c(SCC(=O)Nc2cc(C)c(Cl)cc2OC)nnc1-c1ccco1
**A:** -4.93%

---

Here, each record is paired with measured hERG current change (%, negative = inhibition) at 10uM data.
# system tested: human ether-à-go-go-related gene (hERG) potassium channel (human);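 also: peak tail current of the secondary pulse compared with the same well before compound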
# measurement notes: primary screen, population patch clamp on CHO cells stably expressing hERG; higher = less effect of the substance
Among all 310,000 compounds or so, about 14,000 (4.5%) showed an effect of 50% or more. Effects have a minus sign here. The list comes from a sample in which strong results are over-represented; it also holds close analogues and randomly drawn compounds.
Numeric only. Scale: %

# molecule, quantitative readout
measured = [
    ("Cc1cc(C(=O)Nc2ccc(Nc3ccccc3)cc2)ccc1[N+](=O)[O-]", 17.3),
    ("O=S(=O)(c1ccccc1)c1cnn(-c2ccccc2)c1-c1ccc(F)cc1", -0.19),
    ("COc1ccc(-c2nn(CCC#N)cc2C(=O)NCc2ccccc2)cc1OC", -42.3),
    ("COc1ccc(-c2nnc(OCc3nc4ccccc4n3C)c3ccccc23)cc1", -40.2),
    ("CCN(CC)c1ccc(-n2c(C)cc(C=O)c2C)cc1", 6.33),
]

**Q:** Return reported hERG current change (%, negative = inhibition) at 10uM. Input molecule: COc1ccc(OCCOC(=O)c2nc3nccc(C)n3n2)cc1
**A:** -3.15

**Q:** Determine from records and report hERG current change (%, negative = inhibition) at 10uM for Cc1ccc(OCCOC(=O)c2nc3nccc(C)n3n2)cc1
**A:** -18.4

**Q:** Give the reported hERG current change (%, negative = inhibition) at 10uM for this molecule. COc1ccc(/C=C/c2nc(-c3ccccc3O)n(-c3ccccc3)n2)cc1
**A:** -2.17

**Q:** Supply hERG current change (%, negative = inhibition) at 10uM value. Item: CCN(c1ccccc1)S(=O)(=O)c1ccc(C(=O)N(CCCN(C)C)c2nc3c(C)cccc3s2)cc1.Cl
**A:** -34.7

**Q:** Dear colleague, please send me the reported hERG current change (%, negative = inhibition) at 10uM for CCN(c1ccccc1)S(=O)(=O)c1ccc(C(=O)N(CCCN(C)C)c2nc3cc4c(cc3s2)OCO4)cc1.Cl when you can.
**A:** -57.4

**Q:** Provide only the value of recorded hERG current change (%, negative = inhibition) at 10uM for Cc1cc(C)n2nc(C(=O)OCCOc3ccc(F)cc3)nc2n1
**A:** -12.3

---

# system tested: human ether-à-go-go-related gene (hERG) potassium channel (human);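 also: peak tail current of the secondary pulse compared with the same well before compound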
# measurement notes: primary screen, population patch clamp on CHO cells stably expressing hERG; higher = less effect of the substance
About 14,000 (4.5%) of roughly 310,000 compounds showed an effect of 50% or more. The effect is printed as a negative number. The entries come from a sample that favours strong results as a whole.
hERG current change (%, negative = inhibition) at 10uM reference
Numeric answer only, unit % assumed.

**Q:** Determine from records and report hERG current change (%, negative = inhibition) at 10uM for CN(C)c1ccc(NC(=O)CN2CCN(CC(=O)Nc3ccc(F)cc3)CC2)cc1
**A:** -77.1

**Q:** Give hERG current change (%, negative = inhibition) at 10uM for Clc1ccc(OCCCn2ccnc2)c(Br)c1.O=C(O)C(=O)O
**A:** -18.6

**Q:** Quick one: give measured hERG current change (%, negative = inhibition) at 10uM for Cc1ccccc1OCCCN1CCCC1
**A:** -14.4

**Q:** Give hERG current change (%, negative = inhibition) at 10uM for CCN(CC)c1ccc(NC(=O)CN2CCN(CC(=O)Nc3ccccc3F)CC2)cc1
**A:** -64.9

**Q:** Give me measured hERG current change (%, negative = inhibition) at 10uM, please, for this compound: O=C(OCC(=O)c1ccc(Cl)s1)c1ccc(CO)cc1
**A:** -2.65

**Q:** Let me know recorded hERG current change (%, negative = inhibition) at 10uM for Fc1ccccc1OCCCCCCN1CCCC1 , thanks.
**A:** -38.2
